Attribute: Tm shift
target: Serine/threonine-protein kinase PAK 5 (Homo sapiens) (UniProt Q9P286)
Sequence (Q9P286 whole entry, looked up): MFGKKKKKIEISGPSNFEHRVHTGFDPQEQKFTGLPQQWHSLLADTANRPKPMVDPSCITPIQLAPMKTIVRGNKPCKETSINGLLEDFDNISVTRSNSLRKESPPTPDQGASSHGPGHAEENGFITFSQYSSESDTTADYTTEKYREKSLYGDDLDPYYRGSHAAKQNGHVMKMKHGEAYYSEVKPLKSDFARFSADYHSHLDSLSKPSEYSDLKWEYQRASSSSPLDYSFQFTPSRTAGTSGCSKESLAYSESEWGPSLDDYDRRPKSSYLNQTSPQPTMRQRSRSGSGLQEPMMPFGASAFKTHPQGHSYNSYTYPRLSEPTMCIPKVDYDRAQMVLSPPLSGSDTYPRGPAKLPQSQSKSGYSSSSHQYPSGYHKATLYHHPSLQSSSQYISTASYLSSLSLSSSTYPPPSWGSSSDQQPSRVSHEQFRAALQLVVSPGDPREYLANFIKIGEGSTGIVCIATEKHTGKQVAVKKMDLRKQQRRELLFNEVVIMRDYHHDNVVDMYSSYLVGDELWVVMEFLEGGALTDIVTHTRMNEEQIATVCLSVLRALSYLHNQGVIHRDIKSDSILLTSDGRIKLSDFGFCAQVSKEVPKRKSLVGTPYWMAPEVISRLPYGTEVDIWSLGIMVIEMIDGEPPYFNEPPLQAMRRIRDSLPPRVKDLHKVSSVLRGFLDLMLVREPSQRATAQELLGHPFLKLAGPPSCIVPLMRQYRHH
method-summary: ligand-induced stabilization of human PAK5 kinase – biophysical, DSF, SYPRO orange, recombinant protein (AID 390)
setup-conditions: recombinant PAK5, DSF thermal shift, at 10 µM, hits give high values
attribute-measured: Tm shift

> print(dat)
                                    compound  attribute.measured           val
 1  NS(=O)(=O)c1ccc(Nc2nc(OCC3CCCCC3)c3[nH]cnc3n2)cc1            Tm shift   3.3 Celsius
 2  O=Nc1c(-c2c(O)[nH]c3ccccc23)[nH]c2ccccc12            Tm shift   4.2 Celsius
 3  NCCNc1ncc(C(N)=O)c(Nc2cccc(C(F)(F)F)c2)n1            Tm shift   5.9 Celsius
 4  Nc1nc(Nc2ccc(S(N)(=O)=O)cc2)nn1C(=S)Nc1c(F)cccc1F            Tm shift  5.57 Celsius
 5  O=Nc1c(-c2c(O)[nH]c3cc(Br)ccc23)[nH]c2ccccc12            Tm shift   4.6 Celsius
 6   Cc1cc(Nc2nc(-c3ccccc3)nc3ccccc23)n[nH]1            Tm shift  4.73 Celsius
 7  CC(=O)n1c(C2=c3ccccc3=NC2=O)c(O)[nH]c1=S            Tm shift   3.1 Celsius
 8  CC(C)c1nn(-c2c(Cl)cccc2Cl)c2nc(Cc3ccc(OCCO)cc3)[nH]c(=O)c12            Tm shift   3.1 Celsius
 9  CC(C)C(CO)Nc1nc(Nc2cccc(Cl)c2)c2ncn(C(C)C)c2n1 (stereo not given)            Tm shift   4.5 Celsius
10  NC(=O)c1ccc(-c2nc(-c3ccc4c(c3)OCCO4)c(-c3ccccn3)[nH]2)cc1            Tm shift   4.1 Celsius
